test system: MRCKB; construct: gene CDC42BPB; conditions: concentration: 1 μM, replicates: in singlicate; n = 1;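 note: KINOMEscan kinase panel screen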
Please mark Criterion met if the recorded %Inh is equal to or greater than 8%, and Criterion not met if it falls below.

1. CS(=O)(=O)c1ccc(-c2nc3n(c2-c2ccncc2)CCC3)cc1 [SKF-105942] ... Criterion not met
2. O=C(Nc1n[nH]c2cc(-c3cccc(F)c3F)ccc12)C1CC1 [SB-733894] ... Criterion met
3. Cn1ccc2ncnc(Oc3ccc(NC(=O)Nc4ccccc4)cc3)c21 ... Criterion met
4. Nc1nc(-c2nccs2)c(-c2ccnc3ccccc23)s1 [GW693542] ... Criterion not met
5. O=C(Nc1n[nH]c2nc(-c3nccs3)c(Br)cc12)C1CCCC1 [SB-742609] ... Criterion not met
6. Cc1cccc(-c2nc(Nc3ccc4[nH]ncc4c3)c3ccccc3n2)n1 [GW857175] ... Criterion met
7. Cl.NC(=O)c1cccc(Nc2nccc(Nc3ccc(Oc4cccc(Cl)c4)c(Cl)c3)n2)c1 [GW659008] ... Criterion not met
8. Fc1cc(Cl)ccc1Nc1ccnc2cc(-c3ccc(CN4CCCCC4)o3)ccc12 [GW560116] ... Criterion not met
